- Assay System: PHD2181-417 (Homo sapiens (Human))
- Sequence (Q9GZT9 181-417): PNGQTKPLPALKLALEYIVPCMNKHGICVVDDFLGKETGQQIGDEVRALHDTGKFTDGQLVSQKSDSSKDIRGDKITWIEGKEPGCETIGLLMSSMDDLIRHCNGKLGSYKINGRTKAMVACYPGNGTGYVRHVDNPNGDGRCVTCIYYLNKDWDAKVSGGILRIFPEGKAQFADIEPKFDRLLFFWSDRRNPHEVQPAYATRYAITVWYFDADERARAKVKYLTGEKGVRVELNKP
- Assay Info: PHD enzymatic assay ([14C]-succinic acid production)
- Format: biochemical
- Experimental Conditions: purified PHD2181-417, HIF-1α peptide substrate, 30 min pre-incubation; average of results
- Procedure: Expression and Purification of PHD2181-417 […] (10 μM, California Peptide Research Inc., Napa, Calif.), and [5-^14C]-2-oxoglutaric acid (50 mCi/mmol, Moravek Chemicals, Brea, Calif.) in reaction buffer (40 mM Tris-HCl, pH 7.5, 0.4 mg/ml catalase, 0.5 mM DTT, 1 mM ascorbate) for 10 minutes. […] Next, 50 μl of unlabeled 20 mM 2-oxoglutaric acid/20 mM succinic acid, serving as carrier for the radioactivity, was added to the mixture, and was allowed to proceed for 30 minutes at room temperature. […]
Observation Type: Enzyme pIC50

- Smiles Code: "O=C(O)c1cnn(-c2nc(N3CCCC3)c3cc(-c4ccccc4)ccc3n2)c1"
  Enzyme pIC50: 7.3
- Smiles Code: "O=C(O)c1cnn(-c2nc(Nc3ccccc3)c3cc(-c4ccccc4)ccc3n2)c1"
  Enzyme pIC50: 7.1
- Smiles Code: "CCN(CC)c1nc(-n2cc(C(=O)O)cn2)nc2ccc(C3CCCCC3)cc12"
  Enzyme pIC50: 7.3
- Smiles Code: "CC(C)c1cc2c(NC3CC3)nc(-n3cc(C(=O)O)cn3)nc2cc1Cl"
  Enzyme pIC50: 7.0
- Smiles Code: "O=C(O)c1cnn(-c2nc(N3CCCC3)c3cc(OC4CCCCC4)c(F)cc3n2)c1"
  Enzyme pIC50: 7.3
- Smiles Code: "O=C(O)c1cnn(-c2nc(NC3CC3)c3cc(C4CCCCC4)ccc3n2)c1"
  Enzyme pIC50: 6.7
- Smiles Code: "CN(C)c1nc(-n2cc(C(=O)O)cn2)nc2cc(F)c(OC3CCCCC3)cc12"
  Enzyme pIC50: 7.1
- Smiles Code: "O=C(O)c1cnn(-c2nc(NCC3CCCCC3)c3cc(Oc4ccc(Cl)cc4)ccc3n2)c1"
  Enzyme pIC50: 7.5

###

- Assay System: PHD2181-417 (Homo sapiens (Human))
- Assay Info: PHD enzymatic assay ([14C]-succinic acid production)
- Assay type: biochemical
- Experimental Conditions: purified PHD2181-417, HIF-1α peptide substrate, 30 min pre-incubation; average of results
- Procedure: Expression and Purification of PHD2181-417 […] (10 μM, California Peptide Research Inc., Napa, Calif.), and [5-^14C]-2-oxoglutaric acid (50 mCi/mmol, Moravek Chemicals, Brea, Calif.) in reaction buffer (40 mM Tris-HCl, pH 7.5, 0.4 mg/ml catalase, 0.5 mM DTT, 1 mM ascorbate) for 10 minutes. […] Next, 50 μl of unlabeled 20 mM 2-oxoglutaric acid/20 mM succinic acid, serving as carrier for the radioactivity, was added to the mixture, and was allowed to proceed for 30 minutes at room temperature. […]
Observation Type: Enzyme pIC50

- Compound: "Nc1nc(-n2cc(C(=O)O)cn2)nc2ccc(-c3ccccc3)cc12 [Example 53]"
  Assay System: "PHD2181-417 (Homo sapiens (Human))"
  Enzyme pIC50: 7.0
- Compound: "O=C(O)c1cnn(-c2nc(N3CCCC3)c3cc(C4CCCCC4)ccc3n2)c1 [Example 25]"
  Assay System: "PHD2181-417 (Homo sapiens (Human))"
  Enzyme pIC50: 6.4
- Compound: "CCN(C)c1nc(-n2cc(C(=O)O)cn2)nc2ccc(C(C)C)cc12 [Example 189]"
  Assay System: "PHD2181-417 (Homo sapiens (Human))"
  Enzyme pIC50: 6.8
- Compound: "CN1CCCN(c2nc(-n3cc(C(=O)O)cn3)nc3ccc(Oc4ccc(Cl)cc4)cc23)CC1 [Example 71]"
  Assay System: "PHD2181-417 (Homo sapiens (Human))"
  Enzyme pIC50: 6.7
